Settings: in isopropanol, 318.15 K
measured-endpoint: solubility (mole fraction)
// return just the number, without any unit appended

// query Give the measured solubility (mole fraction) of N[C@@H](CC(=O)N1CCn2c(nnc2C(F)(F)F)C1)Cc1cc(F)c(F)cc1F .
// result 0.0188

----------
Details: in isobutanol, 318.15 K
measured-endpoint: solubility (mole fraction)
Please state the value as a number alone, without comment.

// query What solubility (mole fraction) value was documented for this compound, N[C@@H](CC(=O)N1CCn2c(nnc2C(F)(F)F)C1)Cc1cc(F)c(F)cc1F ?
// result 0.0334

----------
Conditions: in methyl acetate, 278.15 K
measured-endpoint: solubility (mole fraction)
Number only, please.

// query Request the reported solubility (mole fraction) associated with N[C@@H](CC(=O)N1CCn2c(nnc2C(F)(F)F)C1)Cc1cc(F)c(F)cc1F
// result 0.0397

----------
Settings: in sec-butanol, 278.15 K
measured-endpoint: solubility (mole fraction)
Note: the reply should be a number with no unit written.

// query Need solubility (mole fraction), item N[C@@H](CC(=O)N1CCn2c(nnc2C(F)(F)F)C1)Cc1cc(F)c(F)cc1F
// result 0.00274

----------
Settings: in isopentanol, 318.15 K
measured-endpoint: solubility (mole fraction)
The response must contain the number and no unit.

// query Value lookup for solubility (mole fraction); key = N[C@@H](CC(=O)N1CCn2c(nnc2C(F)(F)F)C1)Cc1cc(F)c(F)cc1F
// result 0.0232

----------
Conditions: in water, 303.15 K
measured-endpoint: solubility (mole fraction)
Would you mind answering with just the numeric figure?

// query I am curious: what solubility (mole fraction) value has been reported for N[C@@H](CC(=O)N1CCn2c(nnc2C(F)(F)F)C1)Cc1cc(F)c(F)cc1F ?
// result 0.000458

----------
Details: in isopentanol, 298.15 K
measured-endpoint: solubility (mole fraction)
Would you mind answering with just the numeric figure?

// query Could you tell me which solubility (mole fraction) is on file for N[C@@H](CC(=O)N1CCn2c(nnc2C(F)(F)F)C1)Cc1cc(F)c(F)cc1F ?
// result 0.0104

----------
Conditions: in n-butanol, 293.15 K
measured-endpoint: solubility (mole fraction)

// query Given the entry N[C@@H](CC(=O)N1CCn2c(nnc2C(F)(F)F)C1)Cc1cc(F)c(F)cc1F , report its measured solubility (mole fraction).
// result 0.0177

----------
Conditions: in THF, 293.15 K
measured-endpoint: solubility (mole fraction)
Form rule: numeric answer, no unit written next to it.

// query Can you look up the measured solubility (mole fraction) of N[C@@H](CC(=O)N1CCn2c(nnc2C(F)(F)F)C1)Cc1cc(F)c(F)cc1F for me?
// result 0.0363

----------
Details: in isopentanol, 283.15 K
measured-endpoint: solubility (mole fraction)
Could you keep your reply to the number by itself?

// query Which solubility (mole fraction) reading was recorded for the compound N[C@@H](CC(=O)N1CCn2c(nnc2C(F)(F)F)C1)Cc1cc(F)c(F)cc1F ?
// result 0.0054

----------
Settings: in acetonitrile, 313.15 K
measured-endpoint: solubility (mole fraction)
Just the number, please, no unit attached.

// query Tell me the measured solubility (mole fraction) of N[C@@H](CC(=O)N1CCn2c(nnc2C(F)(F)F)C1)Cc1cc(F)c(F)cc1F , please.
// result 0.105

----------
Details: in n-propanol, 298.15 K
measured-endpoint: solubility (mole fraction)
The reply should be a number, written without any unit.

// query Form field: reported solubility (mole fraction) of N[C@@H](CC(=O)N1CCn2c(nnc2C(F)(F)F)C1)Cc1cc(F)c(F)cc1F
// result 0.022

Source listed as BigSolDB 2.1.
